# PROTOCOL_DETAILS: Concentration in plasma, bile and organs after s.c. administration in rats
# Type: in vivo
# CONDITION: female, Wistar, rat, liver, sc, 3 mg/kg, s.c. 3 mg/kg 1 dose/day 10 days, 24 h after last injection, single experiment, read-out: Organ content Liver
READOUT_TYPE: concentration at 24 h (ng/g)
The answer is to be given in ng/g; state only the numeric part.

Specify reported concentration at 24 h for the molecule shown: CCOC(=O)N1CCN(C(=O)[C@H](Cc2cccc(C(=N)N)c2)NS(=O)(=O)c2c(C(C)C)cc(C(C)C)cc2C(C)C)CC1 180

* * *

# PROTOCOL_DETAILS: Concentration in plasma, bile and organs after s.c. administration in rats
# Assay type: in vivo
# CONDITION: female, Wistar, rat, bile, sc, 3 mg/kg, s.c. 3 mg/kg 1 dose/day 10 days, 24 h after last injection, single experiment, read-out: Concentration Bile
READOUT_TYPE: concentration at 24 h (µg/mL)
The answer is to be given in µg/mL; state only the numeric part.

Specify reported concentration at 24 h for the compound shown: CCOC(=O)N1CCN(C(=O)[C@H](Cc2cccc(C(=N)N)c2)NS(=O)(=O)c2c(C(C)C)cc(C(C)C)cc2C(C)C)CC1 3.1

* * *

# PROTOCOL_DETAILS: Concentration in plasma, bile and organs after s.c. administration in rats
# Assay type: in vivo
# CONDITION: female, Wistar, rat, heart, sc, 3 mg/kg, s.c. 3 mg/kg 1 dose/day 10 days, 24 h after last injection, single experiment, read-out: Organ content Heart
READOUT_TYPE: concentration at 24 h (ng/g)
The answer is to be given in ng/g; state only the numeric part.

Specify reported concentration at 24 h for the compound shown: CCOC(=O)N1CCN(C(=O)[C@H](Cc2cccc(C(=N)N)c2)NS(=O)(=O)c2c(C(C)C)cc(C(C)C)cc2C(C)C)CC1 840
